Test system: Nematode eggs
Assay: Plant pathogenic nematode inhibition test by dipping: nematode egg hatch inhibition (NY/T 1154.5-2006)
Assay type: in vivo
Settings: in vivo
I'd be grateful if you could share measured LC50 for these entries.
Give bare numbers, in µg/mL.

>>> measuredvalue("O=C1CC(C(=O)OCCC(F)=C(F)F)C(c2ccc(OCc3ccc(F)cc3)cc2)O1 (stereo not drawn) [Compound 56]")
11.56
>>> measuredvalue("O=C1CC(C(=O)OCCC(F)=C(F)F)C(c2ccc([N+](=O)[O-])cc2)O1 (stereo not drawn) [Compound 58]")
10.07
>>> measuredvalue("O=C1CC(C(=O)OCCC(F)=C(F)F)C(c2ccc(F)cc2)O1 (stereo not drawn) [Compound 20]")
10.143
>>> measuredvalue("COc1ccc(C2OC(=O)CC2C(=O)OCCC=C(F)F)cc1 (stereo not drawn) [Compound 38]")
12.14
>>> measuredvalue("Nc1ccc(C2OC(=O)CC2C(=O)OCCC(F)=C(F)F)cc1 (stereo not drawn) [Compound 60]")
8.40
>>> measuredvalue("O=C1CC(C(=O)OCCC=C(F)F)C(c2ccccc2C(F)(F)F)O1 (stereo not drawn) [Compound 45]")
10.14
>>> measuredvalue("O=C1CC(C(=O)OCCC(F)=C(F)F)C(c2ccc(Cl)cc2F)O1 (stereo not drawn) [Compound 21]")
11.98
>>> measuredvalue("O=C1CC(C(=O)OCCC(F)=C(F)F)C(c2cccc(Cl)c2Cl)O1 (stereo not drawn) [Compound 8]")
12.81

Record LC50 for all entries; do not skip any.
1. Nc1ccccc1C1OC(=O)CC1C(=O)OCCC(F)=C(F)F (stereo not drawn) [Compound 59]
2. O=C1CC(C(=O)OCCC(F)=C(F)F)C(c2cc(Cl)cc(Cl)c2Cl)O1 (stereo not drawn) [Compound 12]
3. O=C1CC(C(=O)OCCC(F)=C(F)F)C(c2cc(Cl)cc(Cl)c2)O1 (stereo not drawn) [Compound 13]

1: 11.24; 2: 12.30; 3: 15.46

Record LC50 for all entries; do not skip any.
1. O=C1CC(C(=O)OCCC(F)=C(F)F)C(c2ccc(Cl)cc2)O1 (stereo not drawn) [Compound 15]
2. CCCc1ccc(C2OC(=O)CC2C(=O)OCCC(F)=C(F)F)cc1 (stereo not drawn) [Compound 5]
3. Cc1ccc(Oc2ccccc2C2OC(=O)CC2C(=O)OCCC(F)=C(F)F)cc1 (stereo not drawn) [Compound 53]
4. COc1ccccc1C1OC(=O)CC1C(=O)OCCC(F)=C(F)F (stereo not drawn) [Compound 35]

11.88
8.02
8.98
10.84

Record LC50 for all entries; do not skip any.
1. COc1cccc(C2OC(=O)CC2C(=O)OCCC(F)=C(F)F)c1 (stereo not drawn) [Compound 37]
2. COc1cccc(C2OC(=O)CC2C(=O)OCCC=C(F)F)c1 (stereo not drawn) [Compound 36]
3. COc1ccc(C2OC(=O)CC2C(=O)OCCC(F)=C(F)F)c(C(F)(F)F)c1 (stereo not drawn) [Compound 42]
4. O=C1CC(C(=O)OCCC(F)=C(F)F)C(c2cc(C(F)(F)F)cc(C(F)(F)F)c2)O1 (stereo not drawn) [Compound 48]
5. O=C1CC(C(=O)OCCC(F)=C(F)F)C(c2ccccc2C(F)(F)F)O1 (stereo not drawn) [Compound 46]
6. O=C1CC(C(=O)OCCC(F)=C(F)F)C(c2ccc(Oc3ccc(Cl)cc3)cc2)O1 (stereo not drawn) [Compound 54]

[12.84, 11.24, 12.39, 12.25, 9.98, 12.40]

Record LC50 for all entries; do not skip any.
1. CCOc1ccccc1C1OC(=O)CC1C(=O)OCCC(F)=C(F)F (stereo not drawn) [Compound 43]
2. COc1c(F)cc(C2OC(=O)CC2C(=O)OCCC(F)=C(F)F)cc1F (stereo not drawn) [Compound 33]
3. O=C1CC(C(=O)OCCC(F)=C(F)F)C(c2ccccc2F)O1 (stereo not drawn) [Compound 19]
4. Cc1ccccc1C1OC(=O)CC1C(=O)OCCC=C(F)F (stereo not drawn) [Compound 2]

[11.98, 12.08, 15.21, 9.81]

Record LC50 for all entries; do not skip any.
1. O=C1CC(C(=O)OCCC(F)=C(F)F)C(c2cccc(Cl)c2)O1 (stereo not drawn) [Compound 14]
2. O=C1CC(C(=O)OCCC(F)=C(F)F)C(c2c(F)cccc2C(F)(F)F)O1 (stereo not drawn) [Compound 31]

1: 12.10; 2: 9.60

Record LC50 for all entries; do not skip any.
1. CCOc1ccc(C2OC(=O)CC2C(=O)OCCC(F)=C(F)F)cc1 (stereo not drawn) [Compound 44]
2. O=C1CC(C(=O)OCCC(F)=C(F)F)C(c2cc(F)cc(Br)c2)O1 (stereo not drawn) [Compound 22]
3. CCc1ccc(C2OC(=O)CC2C(=O)OCCC=C(F)F)cc1 (stereo not drawn) [Compound 4]
4. O=C1CC(C(=O)OCCC(F)=C(F)F)C(c2ccc(Oc3ccc(F)cc3)cc2)O1 (stereo not drawn) [Compound 55]
5. COc1ccc(C2OC(=O)CC2C(=O)OCCC(F)=C(F)F)cc1 (stereo not drawn) [Compound 39]
6. O=C1CC(C(=O)OCCC=C(F)F)C(c2ccccc2)O1 (stereo not drawn) [Compound 1]
7. O=C1CC(C(=O)OCCC(F)=C(F)F)C(c2c(F)c(F)c(F)c(F)c2F)O1 (stereo not drawn) [Compound 29]
8. N#Cc1ccc(C2OC(=O)CC2C(=O)OCCC(F)=C(F)F)cc1 (stereo not drawn) [Compound 49]

1. 10.23
2. 9.57
3. 10.25
4. 13.24
5. 11.85
6. 11.81
7. 12.24
8. 10.36

Which value of LC50 has been reported for O=C1CC(C(=O)OCCC(F)=C(F)F)C(c2cc(F)ccc2F)O1 (stereo not drawn) [Compound 28] in the records? 13.23

* * *

I'd be grateful if you could share measured LC50 for these entries.
Tested on: Nematode eggs
Assay: Plant pathogenic nematode inhibition test by dipping: nematode egg hatch inhibition (NY/T 1154.5-2006)
Assay type: in vivo
Settings: in vivo
Description: A plant pathogenic nematode inhibition test is conducted by dipping with the compounds in Table 1; and by referring to NY/T 1154.5-2006 (Part 5: Dipping Test for Insecticide Ovicidal Activity), the nematode egg hatch inhibition activity of the compounds is tested, as shown in Table 2: […]
Answers are plain numbers, in µg/mL.

Some compounds with recorded LC50:
>>> measuredvalue("O=C1CC(C(=O)OCCC(F)=C(F)F)C(c2ccccc2OC(F)(F)F)O1 (centres unmarked) [Compound 41]")
11.41
>>> measuredvalue("O=C1CC(C(=O)OCCC(F)=C(F)F)C(c2c(Cl)cccc2Cl)O1 (centres unmarked) [Compound 11]")
13.30
>>> measuredvalue("O=C1CC(C(=O)OCCC=C(F)F)C(c2ccccc2OC(F)(F)F)O1 (centres unmarked) [Compound 40]")
10.04
>>> measuredvalue("O=C1CC(C(=O)OCCC(F)=C(F)F)C(c2cc(Br)cc(Br)c2)O1 (centres unmarked) [Compound 18]")
10.23

Next, consider the following compound.
Which value of LC50 has been reported for O=C1CC(C(=O)OCCC(F)=C(F)F)C(c2ccc(C(F)(F)F)cc2F)O1 (centres unmarked) [Compound 32] in the records? 12.14

* * *

I'd be grateful if you could share measured LC50 for these entries.
Test system: Nematode eggs
Assay: Plant pathogenic nematode inhibition test by dipping: nematode egg hatch inhibition (NY/T 1154.5-2006)
Assay type: in vivo
Conditions: in vivo
One number for each entry, in µg/mL.

>>> measuredvalue("O=C1CC(C(=O)OCCC(F)=C(F)F)C(c2cccc(Oc3cccc(C(F)(F)F)c3)c2)O1 (centres unmarked) [Compound 52]")
10.12
>>> measuredvalue("O=C1CC(C(=O)OCCC(F)=C(F)F)C(c2ccc(F)c(Cl)c2)O1 (centres unmarked) [Compound 23]")
10.23
>>> measuredvalue("O=C1CC(C(=O)OCCC(F)=C(F)F)C(c2cc(Cl)ccc2Cl)O1 (centres unmarked) [Compound 10]")
10.80
>>> measuredvalue("O=C1CC(C(=O)OCCC(F)=C(F)F)C(c2c(F)cccc2Cl)O1 (centres unmarked) [Compound 16]")
10.91

Next, consider the following compound.
Which value of LC50 has been reported for O=C1CC(C(=O)OCCC(F)=C(F)F)C(c2ccc(Cl)cc2Cl)O1 (centres unmarked) [Compound 9] in the records? 10.36

* * *

I'd be grateful if you could share measured LC50 for these entries.
Tested on: Nematode eggs
Experiment: Plant pathogenic nematode inhibition test by dipping: nematode egg hatch inhibition (NY/T 1154.5-2006)
Type: in vivo
Conditions: in vivo
Numbers only, in µg/mL.

Some molecules with recorded LC50:
>>> measuredvalue("O=C1CC(C(=O)OCCC(F)=C(F)F)C(c2cccc([N+](=O)[O-])c2)O1 (stereo not shown) [Compound 57]")
12.12
>>> measuredvalue("O=C1CC(C(=O)OCCC=C(F)F)C(c2cc(C(F)(F)F)cc(C(F)(F)F)c2)O1 (stereo not shown) [Compound 47]")
11.41
>>> measuredvalue("O=C1CC(C(=O)OCCC(F)=C(F)F)C(c2cc(F)c(F)c(F)c2)O1 (stereo not shown) [Compound 30]")
9.73

Next, consider the following molecule.
Which value of LC50 has been reported for CCCCc1ccc(C2OC(=O)CC2C(=O)OCCC(F)=C(F)F)cc1 (stereo not shown) [Compound 6] in the records? 11.81

// data source = patent US10111428B2
